Biological target: Bcl-2-like protein 10 (Homo sapiens)
Assay: TR3 peptide-Bcl-B binding displacers, biochemical primary FP assay, phenotype converters (AID 1240);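 note: 0% = Bcl-B with tracer peptide and DMSO and 100% = tracer peptide lacking Bcl-B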
Settings: GST-Bcl-B / FITC-TR3 peptide fluorescence polarization; stronger effect = higher value; compound at 3.75 mg/L
The campaign covered roughly 50,000 compounds. About 800 (1.6%) showed an effect of 50% or more. The sample as a whole holds a higher share of strong results than the screen did.
READOUT_LABEL: displacement

These recorded examples may help you get a feel for the data.
# MOLECULE, displacement
records = [
    ("C=CCc1ccccc1OCCOc1ccc(Br)cc1/C=C1/SC(=S)N(C)C1=O", "-1.8%"),
    ("Cc1ccccc1-n1c(C)cc(/C=N/NC(=O)CN2CCOCC2)c1C", "-22.2%"),
    ("CCOC(=O)C1=C(O)/C(=C\\c2ccc([N+](=O)[O-])cc2)N=C1C", "1.5%"),
    ("O=C(O)c1ccc(NC(=O)c2ccc(Cl)cc2)cc1", "-3.6%"),
    ("CCOC(=O)C1=C(O)/C(=C/c2cccc(O)c2)SC1=Nc1ccc([N+](=O)[O-])cc1", "-1.1%"),
    ("CCOC(=O)C1=C(O)/C(=C/c2cccc(Br)c2)SC1=Nc1ccc([N+](=O)[O-])cc1", "63.1%"),
]

Input: // query displacement value for entry CCOC(=O)C1=C(O)/C(=C/c2ccccc2)SC1=Nc1ccc([N+](=O)[O-])cc1
Output: -0.9%

Input: Look up displacement for this molecule: CCOC(=O)C1=C(O)/C(=C/c2cccc([N+](=O)[O-])c2)N=C1C
Output: 129%

Input: Tell me the measured displacement of CCOC(=O)C1=C(O)/C(=C\c2ccccc2[N+](=O)[O-])N=C1C , please.
Output: 15.7%

Input: What value of displacement has been reported for the following molecule? Cc1cccn2c(=O)c(/C=C3\SC(=S)N(C(C)c4ccccc4)C3=O)c(NCCCn3ccnc3)nc12 (stereo not given)
Output: 8.8%

Source: PubChem BioAssay AID1240
